Target: T1, calcineurin expressed as the glutathione S-transferase fusion protein (GST-CN) (UniProt Q08209 2-347)
T1 construct: also called CN-GST; recombinant GST-CN; not shown: glutathione S-transferase (GST) fusion partner
T1 sequence (Q08209 2-347): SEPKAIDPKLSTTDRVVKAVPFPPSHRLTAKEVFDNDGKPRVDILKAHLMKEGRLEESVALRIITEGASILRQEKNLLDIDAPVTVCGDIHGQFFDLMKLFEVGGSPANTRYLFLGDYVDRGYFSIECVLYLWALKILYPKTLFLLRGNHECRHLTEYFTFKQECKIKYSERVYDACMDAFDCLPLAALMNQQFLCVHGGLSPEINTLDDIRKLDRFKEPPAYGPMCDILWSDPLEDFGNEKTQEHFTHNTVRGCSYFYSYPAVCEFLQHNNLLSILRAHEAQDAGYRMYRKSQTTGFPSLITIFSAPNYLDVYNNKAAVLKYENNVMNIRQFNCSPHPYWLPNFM
Test: FP competition: 15 nM FITC-labeled compound 35 as probe, 15 nM GST-CN, unlabeled inhibitor titrated
endpoint-name: pIC50
// pIC50 here means minus log10 of the molar concentration (mol/L)

Inquiry: Find the recorded pIC50 belonging to XIXITQHLSKQRRRRXF (not fully specified; N-terminal DFNA (2,3-difluoroisonicotinamide); Tle; Bhv = L-β-hydroxyvaline; D-Leu; miniPEG; Lys side chain carrying cyclo-(Gln-(D-Arg)-Arg-(D-Arg)-Arg-(2-Nal)-(D-Phe)); C-terminal amide) and report it.
Reply text: 7.13

Inquiry: Find the recorded pIC50 belonging to XIXITQHLSKQRRRRXF (not fully specified; N-terminal DCNA; Tle; Psa = L-penicillamine sulfonic acid; D-Leu; miniPEG; Lys side chain carrying cyclo-(Gln-(D-Arg)-Arg-(D-Arg)-Arg-(2-Nal)-(D-Phe)); C-terminal amide) and report it.
Reply text: 6.97

Inquiry: Find the recorded pIC50 belonging to XXXITQHLSKQRRRRXF (not fully specified; N-terminal DFNA (2,3-difluoroisonicotinamide); Tle; Chg = L-cyclohexylglycine; Psa = L-penicillamine sulfonic acid; D-Leu; miniPEG; Lys side chain carrying cyclo-(Gln-(D-Arg)-Arg-(D-Arg)-Arg-(2-Nal)-(D-Phe)); C-terminal amide) and report it.
Reply text: 7.02

Inquiry: Find the recorded pIC50 belonging to XXXITQHLSKQRRRRXF (not fully specified; N-terminal DCNA; Tle; Chg = L-cyclohexylglycine; Bhv = L-β-hydroxyvaline; D-Leu; miniPEG; Lys side chain carrying cyclo-(Gln-(D-Arg)-Arg-(D-Arg)-Arg-(2-Nal)-(D-Phe)); C-terminal amide) and report it.
Reply text: 7.34

Inquiry: Find the recorded pIC50 belonging to XIXITQHLSKQRRRRXF (not fully specified; N-terminal DCNA (2,3-dichlorisonicotinamide; Table 8 prints DCN); Tle at 1; Bhv = L-β-hydroxyvaline at 3 (Table 8 prints Hva); D-Leu; miniPEG; Lys side chain carrying cyclo-(Gln-(D-Arg)-Arg-(D-Arg)-Arg-(2-Nal)-(D-Phe)); C-terminal amide, also called CN103; compound 43) and report it.
Reply text: 6.65

Inquiry: Find the recorded pIC50 belonging to XIXITQHLSKQRRRRXF (not fully specified; N-terminal DCNA (2,3-dichlorisonicotinamide; Table 8 prints DCN, 2,3-dichloro-4-pyridinyl); Tle at 1 and 3; D-Leu; miniPEG; Lys side chain carrying cyclo-(Gln-(D-Arg)-Arg-(D-Arg)-Arg-(2-Nal)-(D-Phe)); C-terminal amide, also called compound 41; 41) and report it.
Reply text: 6.74

Inquiry: Find the recorded pIC50 belonging to XXXITQHLSXKQRRRRXF (not fully specified; N-terminal DCNA (2,3-dichlorisonicotinamide); Tle; Chg = L-cyclohexylglycine; Bhv = L-β-hydroxyvaline; D-Leu; βAla; Lys side chain carrying cyclo-(Gln-(D-Arg)-Arg-(D-Arg)-Arg-(2-Nal)-(D-Phe)); C-terminal amide) and report it.
Reply text: 7.35
